# SUBJECT_OF_TEST: T1, Rhesus macaque CD4-HIS (Acro Biosystems, Cat. CD4-C52H7) (rhesus macaque, UniProt P16003 26-390)
# T1 construct: Bought reagent; also called Rhesus CD4; rhesus CD4-HIS; not shown: His tag
# EXPERIMENT: BLI Octet, mAb on anti-mouse Fc sensor, rhesus CD4-HIS 25-100 nM, 1:1 global fit;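 note: purified antibodies captured at 10 µg/mL, rhesus CD4 analyte run as a three-concentration serial dilution, irrelevant antibody as reference control, one kinetic constant set per antibody from global fitting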
Provide the recorded Response for the entries that follow.

75110_05E13A (antibody, V domains shown, Tested as antibody purified from AlivaMab Mouse hybridoma supernatant (captured by anti-mouse IgG Fc)) VH: EVQLVESGGDLVKPGGSLRLSCAASGFSFSNAWMSWVRQAPGKGLEWVGRVESKTDGGTTDYAAPVKDRFTISRDDSKYTLYLQMNSLKTEDSAVYYCTIGGGFGLELYGFFDYWGQGTLVTVSS VL: DIQMTQSPSTLSASVGDRVTITCRASQSISSWLAWYQQKPGKAPMLLIYKASSLESGVPSRFSGSGSGTEFTLTISSLQPDDFATYYCLQYNSYYTFGQGTKLEIK    0.03
75110_05B13A (antibody, V domains shown, Tested as antibody purified from AlivaMab Mouse hybridoma supernatant (captured by anti-mouse IgG Fc)) VH: QVLLEQWGAGLLKPSETLSLTCAVYGGSFSGYYWTWIRQPPGKGLEWIGEINHRGSTNYNPSLKSRVTISIDTSKNQFSLKVKSVTAADTAMYYCTRPDSNWFDPWGQGTLVTVSS VL: DIQMTQSPSSVSASVGDRVTITCRASQDISNWLAWYQQKPGKAPKLLIFAASSLQSGVPSRFSGSGSGTDFTLTISSLQPEDFATYYCQQANSFPLTFGGGTKVEIK    0.14

Next binder, Response to be filled in.
Q. Quick check: Response of 75110_04P08A (antibody, V domains shown, Tested as antibody purified from AlivaMab Mouse hybridoma supernatant (captured by anti-mouse IgG Fc)) VH: QVQLQQWGAGLLKPSETLSLTCAVYGGSLSGYYWSWIRQSPGKGLEWIGEINQSGSTNYNPSLKSRVTISVDTSKDQFSLRLTSVTAADTAVYYCTRVLNWFDPWGRGTLVTVSS VL: DIQMTQSPSSVSASVGDRVTLTCRASQDISNWLAWYQQKPGKAPKLLIYAASSLQSGVPSRFSGSGSGTDFTLTISSLQTEDFATYYCQQANSFPYTFGQGTKLEIK ?
A. 0.12

// provenance: patent US20220112288A1
